# test details: Relative affinity for delta and kappa opioid receptors of guinea pig brain homogenate
# condition description: Cavia porcellus
A collection of compounds and their measured Selectivity
Lab note: record just the number, no unit beside it.

For orientation, consider the following solved cases.
- compound: "CC[C@H](C)[C@H]1NC(=O)[C@H](CCCN=C(N)N)NC(=O)[C@@H](CCCN=C(N)N)NC(=O)[C@H](NC(=O)[C@H](Cc2ccccc2)NC(=O)CNC(=O)CNC(=O)[C@@H](N)Cc2ccc(O)cc2)CSSC[C@H](C(=O)O)NC(=O)[C@@H](CC(C)C)NC(=O)[C@H](CCCCN)NC(=O)C2CCCN2C(=O)[C@H](CCCN=C(N)N)NC1=O (stereo in doubt)"
  Selectivity: 46
- compound: "CC(C)C[C@H](NC(=O)[C@H](Cc1ccccc1)NC(=O)CNC(=O)CNC(=O)[C@@H](N)Cc1ccc(O)cc1)C(=O)N[C@@H](CCCN=C(N)N)C(=O)N[C@@H](CCCN=C(N)N)C(=O)N[C@@H]1CSSC[C@@H](C(=O)N[C@@H](CCCCN)C(=O)O)NC(=O)[C@@H](CCCCN)NC(=O)[C@@H]2CCCN2C(=O)[C@@H](CCCN=C(N)N)NC1=O"
  Selectivity: 56

Now, please, on to the next compound.
### Prompt Consider the compound `CC[C@H](C)[C@H]1NC(=O)[C@H](CCCN=C(N)N)NC(=O)[C@@H](CCCN=C(N)N)NC(=O)[C@H](NC(=O)[C@H](Cc2ccccc2)NC(=O)CNC(=O)CNC(=O)[C@@H](N)Cc2ccc(O)cc2)CSSC[C@H](C(=O)N[C@H](CCCN=C(N)N)C(=O)N[C@H](CCCCN)C(=O)O)NC1=O` and give its recorded Selectivity.
### Response 43
